Assay: Pharmacokinetic analysis in male SD rats after IV bolus, plasma by LC-MS/MS
Assay type: in vivo
Conditions: rat, IV bolus 0.04 mg/kg, 3 rats per group
PROPERTY MEASURED: Cmax
Remember to put the unit after the number in your answer.

Query block: Give its Cmax value. Item: [2H]C([2H])([2H])C([2H])([2H])OCc1nc2c(N)nc3ccccc3c2n1CC(C)(C)O
Result block: 40.1 ng/mL

Query block: Give its Cmax value. Item: [2H]C([2H])([2H])C(O)(C([2H])([2H])[2H])C([2H])([2H])n1c(COCC)nc2c(N)nc3ccccc3c21
Result block: 44.5 ng/mL

Query block: Give its Cmax value. Item: [2H]C([2H])([2H])C(O)(Cn1c(COCC)nc2c(N)nc3ccccc3c21)C([2H])([2H])[2H]
Result block: 40.3 ng/mL

Query block: Give its Cmax value. Item: CCOCc1nc2c(N)nc3ccccc3c2n1CC(C)(C)O [Resiquimod, reference compound]
Result block: 43.8 ng/mL

These entries and their values trace back to patent US11274099B2.
